Where do the numbers come from? From patent US20210246166A1.

- System: Recombinant human MASP2 enzyme (fragment corresponding to amino acids 297-686, C-terminal His Tag) (human, UniProt O00187 297-686)
- Sequence (O00187 other isoform, or with tags, fused parts or gaps limits assumed): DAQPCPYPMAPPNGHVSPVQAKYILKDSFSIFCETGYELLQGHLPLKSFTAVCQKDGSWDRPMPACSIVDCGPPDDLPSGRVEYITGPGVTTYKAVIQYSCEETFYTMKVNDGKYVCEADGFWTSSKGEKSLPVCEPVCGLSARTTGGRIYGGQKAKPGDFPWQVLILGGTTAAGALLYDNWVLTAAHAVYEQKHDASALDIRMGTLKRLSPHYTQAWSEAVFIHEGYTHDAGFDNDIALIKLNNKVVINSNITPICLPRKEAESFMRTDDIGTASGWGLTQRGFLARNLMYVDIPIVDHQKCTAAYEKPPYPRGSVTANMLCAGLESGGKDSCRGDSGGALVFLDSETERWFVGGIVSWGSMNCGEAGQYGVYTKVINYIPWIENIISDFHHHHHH
- Experiment Summary: cell-based or functional assay
Bridge positions count the residues as written; N and C are the ends. Square brackets hold non-standard residues; d marks the D form. Ends that are not written are not given here. Oic = O=C(O)[C@@H]1C[C@@H]2CCCC[C@@H]2N1; tBuAla = CC(C)(C)C[C@H](N)C(=O)O; Pen = CC(C)(S)[C@H](N)C(=O)O; 4Amb = NCc1ccc(C(=O)O)cc1; NMeA = CN[C@@H](C)C(=O)O
Property Measured: human MASP2 IC50 (nM)
Numeric only. Scale: nM

Need human MASP2 IC50 of [NMeA]ICSRSLP[Oic]I[Pen]IPD-OH (disulfide 3-11; N-terminus assumed; SMILES CC[C@H](C)[C@H](NC(=O)[C@H](C)NC)C(=O)N[C@H]1CSSC(C)(C)[C@@H](C(=O)N[C@H](C(=O)N2CCC[C@H]2C(=O)N[C@@H](CC(=O)O)C(=O)O)[C@@H](C)CC)NC(=O)[C@H]([C@@H](C)CC)NC(=O)[C@@H]2C[C@@H]3CCCC[C@@H]3N2C(=O)[C@@H]2CCCN2C(=O)[C@H](CC(C)C)NC(=O)[C@H](CO)NC(=O)[C@H](CCCNC(=N)N)NC(=O)[C@H](CO)NC1=O) [((N-Me)A)-IC+SRSLP-(Oic)-I-(Pen)+IPD-OH] , thanks.
160

Here is the next item to consider.
Need human MASP2 IC50 of [4Amb]ICSRS[tBuAla]PPI[Pen]IPD-NH2 (disulfide 3-11; N-terminus assumed; SMILES CC[C@H](C)[C@H](NC(=O)c1ccc(CN)cc1)C(=O)N[C@H]1CSSC(C)(C)[C@@H](C(=O)N[C@H](C(=O)N2CCC[C@H]2C(=O)N[C@@H](CC(=O)O)C(N)=O)[C@@H](C)CC)NC(=O)[C@H]([C@@H](C)CC)NC(=O)[C@@H]2CCCN2C(=O)[C@@H]2CCCN2C(=O)[C@H](CC(C)(C)C)NC(=O)[C@H](CO)NC(=O)[C@H](CCCNC(=N)N)NC(=O)[C@H](CO)NC1=O) [(4-(Aminomethyl)benzoic acid)-IC+SRS-((tBu)A)-PPI-(Pen)+IPD-NH2] , thanks.
8.1
